Reference for the values: patent EP4512427A1

System: MDA-MB-453
Assay Info: In vitro cytotoxicity assay (MTT)
Format: cell-based, human
Condition Context: Homo sapiens, MDA-MB-453, 144 h, 6 days incubation
A collection of compounds and their measured IC50
Respond numerically; units are nM and should not be typed.

Test system MDA-MB-453; read-out IC50; what value for NC[C@H]1CC[C@H](Nc2nc(NCc3ccc(-c4ccccn4)cc3)n3ncc(Br)c3n2)CC1 ?
1.97

// same read-out, input: CC(C)c1cnn2c(NCc3ccc(-c4ccccn4)cc3)nc(N[C@H]3CC[C@H](N)CC3)nc12
2.73

// same read-out, input: CNCCNc1nc(NCc2ccc(-c3ccccn3)cc2)n2ncc(Br)c2n1
2.47

// same read-out, input: CN(CCN)c1nc(NCc2ccc(-c3ccccn3)cc2)n2ncc(Br)c2n1
1.17
